Target: T1, human CTLA4 (human, UniProt P16410 36-161, limits assumed)
T1 sequence (looked up): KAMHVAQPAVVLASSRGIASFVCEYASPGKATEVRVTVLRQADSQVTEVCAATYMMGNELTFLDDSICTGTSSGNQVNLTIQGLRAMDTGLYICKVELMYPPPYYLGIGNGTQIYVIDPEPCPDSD
Assay: Interaction with CTLA4, ICOS CD28; assay not detailed
OUTCOME MEASURE: binding result

10D1 murine anti-PD-1 antibody (antibody, V domains shown, Purified hybridoma antibody; also called 10D1-mIgG1) VH: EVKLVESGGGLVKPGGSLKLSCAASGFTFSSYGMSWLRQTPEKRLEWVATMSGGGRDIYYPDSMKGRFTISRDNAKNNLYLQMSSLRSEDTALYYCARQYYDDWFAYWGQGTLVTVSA VL: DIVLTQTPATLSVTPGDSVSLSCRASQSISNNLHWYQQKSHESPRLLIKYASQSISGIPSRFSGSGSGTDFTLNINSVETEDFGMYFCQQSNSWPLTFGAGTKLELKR | no binding
22A5 murine anti-PD-1 antibody (antibody, V domains shown, Purified hybridoma antibody; also called 22A5-mIgG1) VH: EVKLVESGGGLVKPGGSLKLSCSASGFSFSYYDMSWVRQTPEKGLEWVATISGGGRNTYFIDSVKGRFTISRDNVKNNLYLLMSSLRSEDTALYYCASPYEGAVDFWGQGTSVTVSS VL: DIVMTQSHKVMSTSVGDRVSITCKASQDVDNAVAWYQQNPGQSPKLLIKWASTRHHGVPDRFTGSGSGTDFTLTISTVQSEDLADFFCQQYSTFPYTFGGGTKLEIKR | no binding
